Test system Syk (Homo sapiens), IC50 listed for each of the compounds.

These solved cases illustrate the format of a correct answer.
# compound, IC50
data = [
    ("CC(=O)N1CCCC(c2nc(-c3ccc(C(C)C)cc3)n3cnc4[nH]ccc4c23)C1 (stereo not shown)", "1 to 10 µM"),
    ("Brc1cnc2c3cc[nH]c3ncn12", "> 10 µM"),
    ("c1cc2c(ncn3cnc(C4CCCCC4)c23)[nH]1", "1 to 10 µM"),
    ("CC(C)(O)c1ccc(-c2cnc3c4cc[nH]c4ncn23)cc1", "0.1 to 1 µM"),
    ("c1cncc(-c2cn3cnc4[nH]ccc4c3n2)c1", "1 to 10 µM"),
]

// sample `c1cc2c(ncn3nnc(C4CCCCC4)c23)[nH]1` , its IC50 was > 10 µM

// sample `COc1ccc(-c2nnc3c4cc[nH]c4ncn23)cc1` , its IC50 was > 10 µM

* * *

target: Jak3 (Homo sapiens); construct: Jak3 enzyme (aa 811-1103); GST; experiment: In vitro Jak3 kinase activity measured by trFRET; conditions: Jak3 enzyme aa 811-1103, 0.001 mM ATP
Sequence (P52333 811-1103): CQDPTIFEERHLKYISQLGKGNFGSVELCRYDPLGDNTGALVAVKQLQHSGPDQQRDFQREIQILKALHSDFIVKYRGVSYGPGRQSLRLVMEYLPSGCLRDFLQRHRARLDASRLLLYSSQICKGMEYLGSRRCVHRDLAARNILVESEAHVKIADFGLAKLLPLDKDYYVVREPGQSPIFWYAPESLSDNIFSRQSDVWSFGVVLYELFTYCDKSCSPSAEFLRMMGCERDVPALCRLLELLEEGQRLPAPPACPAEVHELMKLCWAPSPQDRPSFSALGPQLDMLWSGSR
measuredMetric: IC50

These solved cases illustrate the format of a correct answer.
# compound, IC50
records = [
    ("N#CC1(C(=O)N2CCC[C@@H](c3nnn4cnc5[nH]ccc5c34)C2)CC1 (single isomer, unassigned)", "100 to 1000 nM"),
    ("O=C(OCc1ccccc1)N1CCCC(c2ncn3cnc4[nH]ccc4c23)C1 (stereo not drawn)", "1000 to 10000 nM"),
    ("N#CC1(C(=O)N2CCCC(c3nnn4cnc5[nH]ccc5c34)C2)CC1 (racemic)", "1000 to 10000 nM"),
    ("c1cc2c(ncn3nnc(C4CCCCC4)c23)[nH]1", "1000 to 10000 nM"),
    ("N#CC1(C(=O)N2CCC[C@H](c3nnn4cnc5[nH]ccc5c34)C2)CC1 (single isomer, unassigned)", "1000 to 10000 nM"),
]

# input for lookup
// sample CC(C)c1nc(C2CCCN(C(=O)OCc3ccccc3)C2)c2c3cc[nH]c3ncn12 (stereo not drawn) , its IC50 was 1000 to 10000 nM
